Values of IC50 for Neprilysin (Oryctolagus cuniculus, UniProt P08049), collected from a number of published sources:
- TESTED ON: Neprilysin (Oryctolagus cuniculus, UniProt P08049)
- Sequence (P08049 whole entry): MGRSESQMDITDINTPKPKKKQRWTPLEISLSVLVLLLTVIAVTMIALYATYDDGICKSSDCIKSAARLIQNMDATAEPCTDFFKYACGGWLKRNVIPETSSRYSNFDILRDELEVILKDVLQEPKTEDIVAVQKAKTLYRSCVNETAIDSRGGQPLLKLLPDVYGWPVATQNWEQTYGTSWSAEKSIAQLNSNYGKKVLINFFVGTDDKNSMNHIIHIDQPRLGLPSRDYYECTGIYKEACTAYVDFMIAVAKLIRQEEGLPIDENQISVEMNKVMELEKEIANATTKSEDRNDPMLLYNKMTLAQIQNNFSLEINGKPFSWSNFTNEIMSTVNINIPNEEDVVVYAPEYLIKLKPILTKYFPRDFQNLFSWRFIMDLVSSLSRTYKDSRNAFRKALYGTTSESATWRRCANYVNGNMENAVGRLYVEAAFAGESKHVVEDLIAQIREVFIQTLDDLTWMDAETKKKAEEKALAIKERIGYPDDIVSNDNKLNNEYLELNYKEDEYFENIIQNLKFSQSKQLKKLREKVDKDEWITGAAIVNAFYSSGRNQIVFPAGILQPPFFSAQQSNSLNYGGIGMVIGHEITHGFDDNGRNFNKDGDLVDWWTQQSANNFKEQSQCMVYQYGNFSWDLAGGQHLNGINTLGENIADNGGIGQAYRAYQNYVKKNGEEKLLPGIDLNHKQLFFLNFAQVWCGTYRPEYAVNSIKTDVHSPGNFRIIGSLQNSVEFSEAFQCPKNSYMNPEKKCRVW
Response field label takes 1 when IC50 is strictly below 60 nM and -1 in all other cases.

Reference set (6 entries):
Problem: Determine whether this compound shows IC50 lower than 60 nM (ties excluded): O=C(CC(Cc1ccccc1)C(=O)NCC(Cc1ccccc1)C(=O)O)NO (stereo not given)
Solution: 1

Problem: For the compound CCC(C)C(S)CC(C(=O)NC(Cc1ccc(O)cc1)C(=O)O)C(C)CC (stereo not given) , is IC50 under 60 nM?
Solution: -1

Problem: Here's an entry: O=C(O)C[C@H](NC(=O)[C@@H](CC(=O)NO)Cc1ccccc1)c1ccccc1 (racemic) . Is its IC50 below 60 nM?
Solution: 1

Problem: Decide: IC50 of O=C(NCC(=O)N1[C@@H](c2cccc(O)c2)CC[C@H]1C(=O)O)[C@@H](S)Cc1cccc(O)c1 strictly below 60 nM?
Solution: 1

Problem: Hello, is IC50 of the following compound strictly smaller than 60 nM? O=C(O)CC(=O)N[C@@H](Cc1ccccc1)C(=O)NO
Solution: -1

Problem: Lab note: IC50 threshold 60 nM. Does this compound come in strictly under it? O=C(O)C[C@H](Cc1ccccc1)NC(=O)[C@H](CC(=O)NO)Cc1ccccc1
Solution: 1

Further cases:
Problem: Identify whether the compound O=C(O)[C@H](Cc1ccccc1)NC(=O)[C@@H](S)Cc1ccccc1 records IC50 below 60 nM.
Solution: 1

Problem: Please check: IC50 for CN(O)C(=O)[C@@H](Cc1ccccc1)NC(=O)CC(=O)O , strictly under 60 nM or not?
Solution: -1

Problem: Just wondering, is IC50 of CC(NC(=O)C(Cc1ccccc1)CC(S)c1ccccc1)C(=O)O (stereo not given) below 60 nM?
Solution: -1

Problem: # check: IC50 < 60 nM for Cc1ccccc1[C@H]1CC[C@@H](C(=O)O)N1C(=O)CNC(=O)[C@@H](S)Cc1ccccc1
Solution: 1

Problem: Below 60 nM on IC50? Entry CC(C(=O)O)C(=O)NC(CC(=O)NO)Cc1ccccc1 (stereo not given)
Solution: 1

Problem: I'd appreciate it if you could check whether O=C(CC(Cc1ccccc1)NC(=O)C(Cc1ccccc1)C(=O)O)NO (stereo not given) has IC50 smaller than 60 nM.
Solution: 1

Problem: Is IC50 strictly under 60 nM for the entry O=C(NCC(=O)N1[C@@H](c2ccccc2O)CC[C@H]1C(=O)O)C(S)Cc1ccc(Cl)cc1 (stereo not given in full) ?
Solution: 1

Problem: Does this compound meet the criterion IC50 < 60 nM? CC(C)[C@H](NC(=O)[C@@H](S)Cc1ccccc1)C(=O)N1CC(O)CC1C(=O)O (stereo not given in full)
Solution: -1

Problem: Would you kindly verify if IC50 of CC[C@@H](C)[C@H](NC(=O)[C@@H](S)C(C)C)C(=O)N[C@@H](Cc1ccc(O)cc1)C(=O)O is strictly less than 60 nM?
Solution: 1
